# TARGET OR TEST SYSTEM: T1, Extracellular domain of human ROR1 protein (ROR1-ECD) (human, UniProt Q01973 30-403)
# T1 construct: Expressed in HEK293T cells; also called human ROR1-ECD; purified human ROR1 protein extracellular segment
# T1 sequence (Q01973 other isoform, or with tags, fused parts or gaps): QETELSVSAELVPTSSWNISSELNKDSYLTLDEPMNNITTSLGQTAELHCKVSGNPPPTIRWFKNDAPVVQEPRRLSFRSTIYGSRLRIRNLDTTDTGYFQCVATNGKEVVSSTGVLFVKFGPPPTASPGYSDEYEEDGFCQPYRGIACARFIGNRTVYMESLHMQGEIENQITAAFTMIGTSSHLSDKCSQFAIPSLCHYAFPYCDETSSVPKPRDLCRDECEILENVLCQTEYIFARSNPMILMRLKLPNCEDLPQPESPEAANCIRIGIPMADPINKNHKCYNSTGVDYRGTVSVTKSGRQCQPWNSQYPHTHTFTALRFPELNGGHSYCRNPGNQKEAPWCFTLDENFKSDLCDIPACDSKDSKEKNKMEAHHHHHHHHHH
# EXPERIMENTAL DETAILS: ELISA, plate-coated ROR1-ECD
READOUT LABEL: binding result

1) Hu001-06 (antibody, V domains shown, Humanized; also called Hu001-6) VH: QVQLVQSGAEVKKPGASVKVSCKASGYTFTDYNLHWVRQAPGQGLEWMGYINPNHDATSYNQKFQGKVTMTVDTSTSTVYMELSSLRSEDTAVYYCARRVRTGTGLDDWGQGTTVTVSS VL: DVVMTQSPLSLPVTLGQPASISCRSSHNIVHTNANTYLEWYQQRPGQSPKLLIYKVSNRFSGVPDRFSGSGSGTDFTLKISRVEAEDVGVYYCFQGSRFPYTFGGGTKVEIK | binds
2) Hu005-44 (antibody, V domains shown, Humanized) VH: EVQLVESGGGLVKPGGSLRLSCAASGFTFNSYAMSWVRQTPGKGLEWVATISDAGSYTYYPDNEKGRFTISRDNAKNSLYLQMNSLRAEDTAIYYCVRGGYYYNLYAMDYWGQGTLVTVSS VL: DIVLTQSPDSLAVSLGERATINCKASQSVSFPGTSLMHWYQQKPGQQPKLLIYRASNLEAGVPDRFSGSGSRTDFTLTISSLQAEDVAVYYCQQSREYPWTFGGGTKVEIK | binds
3) Hu001-15 (antibody, V domains shown, Humanized) VH: QVQLVQSGAEVKKPGASVKVSCKASGYTFTDYNLHWVKQAPGQGLEWIGYINPNHDATSYNQKFQGKATLTVDTSTSTAYMELSSLTSEDTAVYYCARRVRTGTGLDDWGQGTTVTVSS VL: DVVMTQSPLSLPVTLGQPASISCRSSHNIVHTNANTYLEWYQQRPGQSPKLLIYKVSNRFSGVPDRFSGSGSGTDFTLKISRVEAEDVGVYYCFQGSRFPYTFGGGTKVEIK | binds

# credit: patent EP4585616A1
